These data points were gathered from patent US5446060A.

assay: Acute toxicity determined orally in mice; conditions: mouse, in vivo; oral, mice (NMRI)
Where a name gives a salt, the structure may show the parent alone.
measurement-name: LD50 (mg/kg)
Could you give me the number in mg/kg? Just the number is fine.

Please review the entries below; each comes with its answer.
- O=C(CCCN1CCCCC1)c1cccs1 [Example 2, hydrochloride]: 235
- O=C(CCCN1CCCCCC1)c1cccs1 [Example 7, hydrochloride]: 131
- O=C(CCCN1CCCC1)c1cccs1 [Example 1, hydrochloride]: 121

The record that follows has no LD50 shown yet.
Request: Identify measured LD50 associated with CC1CCCN(CCCC(=O)c2cccs2)C1 (stereo not shown) [Example 3, hydrochloride]
Response: 207
